Test system: Streptococcus mutans culture (ATCC 25175)
MEASUREMENT_DESCRIPTION: Qualitative Biofilm Inhibition Test
Format: cell-based
Set-up: key: +: refers to a visual assessment that a compound inhibited biofilm formation; −: refers to a visual assessment that either a compound did not inhibit biofilm formation, or that bacteria grew in the culture broth
ASSAY_CONDITIONS: 1 weight percent compound; visible biofilm on disc after incubation and rinse
Counter-ions that a name gives are not always drawn.
ENDPOINT_NAME: Visual Assessment

# example entries with known answers
CC(=O)N[C@@H]1C(O)O[C@H](CO)[C@@H](O)[C@@H]1O (stereo partly drawn) [N-Acetylmannosamine, reference compound] : −
N[C@H]1C(O)O[C@H](CO)[C@@H](O)[C@@H]1O (stereo partly drawn) [Glucosamine HCl, D-glucosamine] : +
OC[C@H]1O[C@@H](O[C@@H]2[C@@H](O)[C@H](O[C@@H]3[C@@H](O)[C@H](O[C@H]4[C@H](O)[C@@H](CO)OC(O)[C@@H]4O)O[C@H](CO)[C@H]3O)O[C@H](CO)[C@H]2O)[C@H](O)[C@@H](O)[C@@H]1O (stereo partly drawn) : −
OC[C@H]1O[C@@H](OC[C@H]2O[C@@H](O)[C@H](O)[C@@H](O)[C@@H]2O)[C@H](O)[C@@H](O)[C@@H]1O : −
N[C@H]1C(O)O[C@H](CO)[C@@H](O)[C@@H]1O (stereo partly drawn) [Glucosamine Sulfate, D-glucosamine] : +
OC[C@H]1O[C@@H](O[C@H]2[C@H](O)[C@@H](O)C(O)O[C@@H]2CO)[C@H](O)[C@@H](O)[C@H]1O (stereo partly drawn) : −
C[C@H](O)[C@@H](O)[C@@H](O)[C@H](O)C=O : −
N[C@H]1C(O)O[C@H](CO)[C@H](O)[C@@H]1O (stereo partly drawn) [Galactosamine HCl, D-galactosamine] : +
N[C@H]1C(O)O[C@H](COP(=O)(O)O)[C@@H](O)[C@@H]1O (stereo partly drawn) [Glucosamine-6-Phosphate, D-glucosamine-6-phosphate] : +
OC[C@@H](O)[C@H](O)[C@@H](O)CO : −

Continue with the next compound.
# query: Visual Assessment | item CC(=O)N[C@H]1C(O)O[C@H](CO)[C@H](O)[C@@H]1O (stereo partly drawn) | system: Streptococcus mutans culture (ATCC 25175)
−
